Listing of entries alongside the reported SSMD.LYZ.NS.
tested on: ISC-enriched organoids; test: Primary screen, 384-well 2.5-D organoid differentiation (ENR+CD, 6 days): basal lysozyme secretion (LYZ.NS); assay type: cell-based, murine; conditions: strictly standardized mean difference; primary screen; 2nd of the 4 dose lines of the treatment (dose not given)
// print number alone

Recorded results for 3 molecules are shown here.
# Molecule, SSMD.LYZ.NS
data = [
    ("Clc1ccc(N/N=C(\\c2ccccc2)c2ccccn2)nc1", 0.239),
    ("CCn1c(=O)c2c(nc(/C=C/c3ccc(OC)c(OC)c3)n2C)n(CC)c1=O", "−0.362"),
    ("Cl.Cl.O=S(=O)(NCCNC/C=C/c1ccc(Br)cc1)c1cccc2cnccc12 [H 89 2HCl]", 0.816),
]

Returns the measured SSMD.LYZ.NS for the input molecule. Input: `C[C@](O)(COc1ccc(C#N)cc1)C(=O)Nc1ccc(C#N)c(C(F)(F)F)c1`
0.150

* * *

test system: ISC-enriched organoids; experiment: Primary screen, 384-well 2.5-D organoid differentiation (ENR+CD, 6 days, Target Selective Inhibitor Library, vs whole-plate median): ATP (CellTiter-Glo 3D, CTG); conditions: Dose 2.00 uM; primary screen, vs plate median
Measured Quantity: Dose.FC.CTG (log 2 fold change)
// print number alone

Recorded results for 3 compounds are shown here.
# Compound, Dose.FC.CTG (log 2 fold change)
data = [
    ("COc1c(C)c(C(=O)c2ccc(N)c(C(=O)[O-])c2)n2ccccc12.[Na+] [SSR128129E]", 0.122),
    ("COc1cc2c(N3CCN(C(=O)Nc4ccc(OC(C)C)cc4)CC3)ncnc2cc1OCCCN1CCCCC1", 0.358),
    ("C[S+]([O-])c1ccc(-c2nc(-c3ccc(F)cc3)c(-c3ccncc3)[nH]2)cc1 (stereo not shown)", 0.237),
]

# input for lookup
Record lookup: for ISC-enriched organoids, what Dose.FC.CTG (log 2 fold change) belongs to `O=C(NNc1nc2cc(F)ccc2n2cccc12)c1cnccn1` ?
−0.257

* * *

test system: ISC-enriched organoids; assay: Primary screen, 384-well 2.5-D organoid differentiation (ENR+CD, 6 days): carbachol-induced lysozyme secretion (LYZ.S); type: cell-based, murine; settings: primary screen, dose 2.00 uM, ENR+CD 6 days, FC vs plate median
Measured Quantity: Dose.FC.LYZ.S (log 2 fold change)
Field format: number, assumed log 2 fold change, no unit text.

Recorded results for 5 compounds are shown here.
# Compound, Dose.FC.LYZ.S (log 2 fold change)
rows = [
    ("CNC(=O)[C@H](Cc1ccccc1)NC(=O)[C@H](CC(C)C)[C@H](CSc1cccs1)C(=O)NO [Batimastat (BB-94)]", 0.056),
    ("O=C(O)c1cccc(-c2noc(-c3ccccc3F)n2)c1 [Ataluren (PTC124)]", 0.058),
    ("Cc1cc2c(C(C)C)c(O)c(O)c(C=O)c2c(O)c1-c1c(C)cc2c(C(C)C)c(O)c(O)c(C=O)c2c1O [AT101]", "−0.085"),
    ("CN(C)Cc1ccc(-c2nc3cccc4c3n2CCNC4=O)cc1 [AG-14361]", "−0.065"),
    ("C/C(=C\\C(=O)Nc1ccccc1C(=O)O)c1ccc2ccccc2c1 [BIBR 1532]", "−0.081"),
]

Returns the measured Dose.FC.LYZ.S for the input compound. Input: COc1ccnc2[nH]cc(C(=O)C(=O)N3CCN(C(=O)c4ccccc4)C[C@H]3C)c12 [BMS-378806]
−0.142

Returns the measured Dose.FC.LYZ.S for the input compound. Input: O=C(Oc1cc(S(=O)(=O)c2ccccc2)ccc1[N+](=O)[O-])c1ccc(Cl)cc1 [BTB06584]
0.039

Returns the measured Dose.FC.LYZ.S for the input compound. Input: COc1cc(F)c(C(C)C)cc1-c1ccc(C(F)(F)F)cc1CN1C(=O)O[C@H](c2cc(C(F)(F)F)cc(C(F)(F)F)c2)[C@@H]1C [Anacetrapib (MK-0859)]
−0.046

Returns the measured Dose.FC.LYZ.S for the input compound. Input: O=C(O)C(Cc1ccccc1[N+](=O)[O-])=NNc1nc(-c2ccc(Cl)c(Cl)c2)cs1 (mixture of isomers) [4EGI-1]
−0.059

Returns the measured Dose.FC.LYZ.S for the input compound. Input: CC(=O)Nc1cccc2c1c(Sc1ccc(Cl)cc1)c(C)n2CC(=O)O [AZD1981]
0.014

These measurements were taken from patent US20230398130A1.
